Cited source: patent US20230210870A1

- Study System: α3β3γ2 GABAA receptor (Homo sapiens, UniProt P28472+P34903)
- Sequence (P34903 29-492): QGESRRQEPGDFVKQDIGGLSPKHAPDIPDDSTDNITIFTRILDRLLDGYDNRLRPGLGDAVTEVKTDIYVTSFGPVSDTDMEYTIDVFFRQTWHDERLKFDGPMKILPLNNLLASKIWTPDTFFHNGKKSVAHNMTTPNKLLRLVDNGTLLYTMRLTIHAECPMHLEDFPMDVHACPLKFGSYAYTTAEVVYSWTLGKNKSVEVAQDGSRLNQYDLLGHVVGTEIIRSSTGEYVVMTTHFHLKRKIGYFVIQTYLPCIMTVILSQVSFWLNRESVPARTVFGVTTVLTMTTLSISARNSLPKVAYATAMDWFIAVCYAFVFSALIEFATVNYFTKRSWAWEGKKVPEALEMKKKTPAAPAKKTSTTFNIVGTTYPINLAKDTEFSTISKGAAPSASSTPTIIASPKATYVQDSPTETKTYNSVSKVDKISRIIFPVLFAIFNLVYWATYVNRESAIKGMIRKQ
- Sequence (P28472 26-473): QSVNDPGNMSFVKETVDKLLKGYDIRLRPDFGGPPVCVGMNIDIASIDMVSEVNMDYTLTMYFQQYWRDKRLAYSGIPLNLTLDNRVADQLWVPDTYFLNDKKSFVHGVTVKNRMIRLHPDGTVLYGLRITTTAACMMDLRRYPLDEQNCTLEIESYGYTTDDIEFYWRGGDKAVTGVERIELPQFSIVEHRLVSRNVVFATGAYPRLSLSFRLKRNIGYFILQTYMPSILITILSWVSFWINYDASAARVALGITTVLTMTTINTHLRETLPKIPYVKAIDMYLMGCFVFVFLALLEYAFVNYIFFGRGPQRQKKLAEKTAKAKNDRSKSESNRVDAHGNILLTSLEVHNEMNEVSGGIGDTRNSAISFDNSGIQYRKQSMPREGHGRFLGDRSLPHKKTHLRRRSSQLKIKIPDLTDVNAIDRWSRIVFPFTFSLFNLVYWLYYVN
- Sequence (P18507 40-475 partner): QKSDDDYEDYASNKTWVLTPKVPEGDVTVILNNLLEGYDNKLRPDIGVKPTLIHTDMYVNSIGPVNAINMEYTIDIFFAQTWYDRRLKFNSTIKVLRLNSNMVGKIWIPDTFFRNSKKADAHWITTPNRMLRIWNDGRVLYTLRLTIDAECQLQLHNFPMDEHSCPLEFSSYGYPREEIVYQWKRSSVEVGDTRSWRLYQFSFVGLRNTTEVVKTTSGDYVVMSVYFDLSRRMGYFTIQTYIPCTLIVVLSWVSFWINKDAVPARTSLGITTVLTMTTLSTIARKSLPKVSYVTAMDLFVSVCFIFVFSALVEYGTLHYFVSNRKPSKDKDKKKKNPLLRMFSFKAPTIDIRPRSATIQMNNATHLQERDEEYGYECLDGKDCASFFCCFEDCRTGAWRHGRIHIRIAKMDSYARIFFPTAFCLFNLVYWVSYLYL
- Protocol: FLIPR modulation of GABA response in cells expressing GABAA receptor subtype
- Run Conditions: in presence of GABA, — = value not measurable
- Protocol: Cells expressing the indicated GABAA receptor subtype were exposed to gamma-aminobutyric acid in the presence of varying concentrations of either CV-10155 or SPNC-019, calcium flux was measured using a fluorometric imaging plate reader (FLIPR), and EC50 values for compounds were determined.
Measured Attribute: EC50
Number plus unit, in that order.

Entry `C[C@@]1(O)CC[C@@]2(C)[C@@H](CC[C@@H]3[C@@H]2CC[C@]2(C)[C@@H](C(=O)Cn4cc(C#N)cn4)CC[C@@H]32)C1` ; assay system α3β3γ2 GABAA receptor (Homo sapiens, UniProt P28472+P34903); EC50 recorded at 273 nM
